The values you see were collected from PubChem BioAssay AID504382.

- assay-comment: IANBD-channel fluorescence artefacts in buffer – biochemical, artefact control for cardiac RTF calcium sensitizer project, confirmation (AID 504382)
- test-parameters: IANBD fluorescence interference counterscreen, EC20 Ca2+, at 7.2 µM, stronger effect = higher value, scaled: EC20 calcium 0, EC100 calcium 100
Among all 2,500 compounds or so, about 460 (18%) were called active. A selection follows.
readout-label: fluorescence artifact activation (%)
Hi! Could you send only the number? It should be in %, unit omitted.

Sample `Cc1ccc(/C=C2\Oc3c(ccc(O)c3CN3CCN(CCO)CC3)C2=O)cc1` ; fluorescence artifact activation observed: 4.11

Value of measured fluorescence artifact activation for the entry `CCN(CC)c1ccc(-c2sc(Nc3ccccc3)n[n+]2-c2ccc(F)cc2)cc1` : 3.87

fluorescence artifact activation in this record for `O=C1/C(=C/C=C/c2ccccc2)Oc2c1ccc(O)c2CN1CCN(CCO)CC1` : 46.6

fluorescence artifact activation in this record for `CN(C)Cc1c(O)ccc2c1O/C(=C\C=C\c1ccccc1)C2=O` : 0.37

fluorescence artifact activation reported for this compound `CCC1(CC)C(=O)Nc2ccccc21` : -0.02

Please fill in: fluorescence artifact activation reported for `CCN1C(=O)/C(=C/C=C2/SCCN2C)SC1=S` = 10.2

---

- assay-comment: IANBD-channel fluorescence artefacts in buffer – biochemical, artefact control for cardiac RTF calcium sensitizer project, confirmation (AID 504382)
- test-parameters: IANBD fluorescence interference counterscreen, EC20 Ca2+, at 7.2 µM, scaled: EC20 calcium 0, EC100 calcium 100
About 460 (18%) of roughly 2,500 compounds were called active.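 How the source made its calls: active means mean activation above a cutoff of low control average plus 3 SD from the earlier screen (cut at about 12% in these data); inactive means the rest.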 A selection follows.
Result category, one only: active, inactive

Assay result, entry `O=C(OCCN1C(=O)c2cccc3c(N4CCOCC4)ccc(c23)C1=O)c1ccc(Cl)cc1` — outcome?
inactive

Assay outcome for `C[C@H](CO)N1C[C@H](C)[C@@H](CN(C)C(=O)Nc2ccccc2)Oc2ccc(NC(=O)Nc3ccc4c(c3)OCO4)cc2C1=O` : what was it?
inactive

Per the assay record, what outcome was assigned to `CCOC(=O)c1cnc2c(C)c(Cl)ccc2c1N1CCOCC1` ?
active

Hi, do you know how Cc1oc(-c2cc3c(cc2Cl)OCO3)nc1CN1CCCC(C(=O)N2CCOCC2)C1 (configuration not stated) came out in this test?
active

What did the test return for `CC(=O)N(C(C)=O)N1C(=O)c2cccc3c(N4CCOCC4)ccc(c23)C1=O` ?
inactive

Recorded test call requested for `O=C(OCCN1C(=O)c2cccc3c(N4CCOCC4)ccc(c23)C1=O)c1ccccc1Cl`
inactive

Which outcome did this test record for the compound `Oc1ccc2ccc3cccc[n+]3c2c1` ?
active

Hey, what did the test say about `Cc1nc(-n2[nH]c3c(c2=O)CCCC3)[nH]c(=O)c1Cc1ccccc1` ?
inactive

Name the outcome recorded for `C/C(=N/Nc1ccnc2cc(Cl)ccc12)c1ccc(N)cc1` in the assay.
inactive

Outcome? `CN(C)c1ccc(/C=C(/C(=O)c2ccc(Cl)cc2Cl)n2cncn2)cc1`
inactive

State the result this test recorded for `O=C(O)CN1C(=O)c2cccc3c(Br)ccc1c23` .
active

Hi, do you know how `CCOC(=O)c1c(NC(=O)c2ccno2)c2cc([N+](=O)[O-])ccc2n1C` came out in this test?
inactive

// param item: `Cc1ccc(-n2c(C)n[nH]c2=S)cc1` ; yields the recorded call
inactive

Hey, what did the test say about `CC(=O)c1cc2c(cc1N/C(=N/S(=O)(=O)c1ccc(Br)cc1)c1ccccc1)OCO2` ?
inactive

What is the recorded call for this compound in the test? `CCOC(=O)c1ccc[n+](CC(=O)Nc2cc(C(F)(F)F)ccc2Cl)c1`
inactive

Lab log entry: `C=C1CCN([C@@H](Cc2ccccc2)C(=O)O)S(=O)(=O)c2ccccc21` — outcome as called in the assay?
inactive

Could you kindly confirm the outcome this assay logged for C=CCN1C(=O)c2ccccc2NC1c1cc(Br)cs1 (configuration not stated) ?
inactive

---

- assay-comment: IANBD-channel fluorescence artefacts in buffer – biochemical, artefact control for cardiac RTF calcium sensitizer project, confirmation (AID 504382)
- test-parameters: IANBD fluorescence interference counterscreen, EC20 Ca2+, at 7.2 µM, stronger effect = higher value, scaled: EC20 calcium 0, EC100 calcium 100
Screen size: about 2,500 compounds; about 460 (18%) were called active. Not all results are given here.
readout-label: fluorescence artifact activation (%)
Field format: number, assumed %, no unit text.

Value of measured fluorescence artifact activation for the entry `CC(=O)c1cc(NC(=O)c2ccc(Cl)cc2)c(=O)oc1/C=C/N(C)C` : 0.02

# fluorescence artifact activation of `CCn1cc(/C=C/c2cc[n+](C)cc2)c2ccccc21` = 0.09

Measured fluorescence artifact activation of `COc1ccc(CNc2nn[nH]n2)cc1OC` : 2.6

The recorded fluorescence artifact activation for entry `COc1ccccc1N1CCN(C(=O)c2ccc(Cn3c(=O)[nH]c4ccsc4c3=O)cc2)CC1` equals 51.1

The compound CC1CC(C)CN(C(=O)Cn2c(-c3nonc3N)nc3ccccc32)C1 (stereo not given) showed fluorescence artifact activation equal to 0.07

`O=C(N/N=C/c1c(O)n(-c2ccc(Cl)cn2)c(=O)c2ccccc12)c1ccncc1` has a reported fluorescence artifact activation of 0.02

The recorded fluorescence artifact activation for entry CC(C)(C)C1(O)CC(C(F)(F)F)=NN1C(=O)CCCc1ccccc1 (stereo not given) equals 0.13

Reported fluorescence artifact activation ( O=C(c1ccc(COc2ccccc2Br)o1)N1N=C(C(F)F)CC1(O)C(F)F (stereo not given) ) = 8.57

Please fill in: fluorescence artifact activation reported for COc1ccc(C2=NN(C(=O)COC(=O)c3ccc(NC(=O)CC#N)cc3)C(c3ccco3)C2)cc1 (stereo not given) = 2.58

Sure, the documented fluorescence artifact activation for `CCN(CC)c1ccc2cc(C(C)=O)c(=O)oc2c1` is 0.03

Per the records, this compound ( `Cc1nn(-c2ccccc2)c(Cl)c1C(=O)NC1CCCCC1` ) has fluorescence artifact activation equal to 4.56

Per the records, this compound ( `CC(=O)[C@H]1[C@H](C#N)C[C@H]2[C@@H]3CC=C4C[C@@H](O)CC[C@]4(C)[C@H]3CC[C@@]21C` ) has fluorescence artifact activation equal to 10.9

compound `COc1cc(OC)c(NC(=O)c2cc3ccccc3cc2O)cc1Cl` , fluorescence artifact activation observed: 0.48

Input COc1cc(C2C3CN(C)CC=C3C(C#N)=C(N)C2(C#N)C#N)ccc1OC(C)C (stereo not given) . Output fluorescence artifact activation: 16.8

The compound listed as `CC1=NN(c2ccc(Br)cc2)C(=O)/C1=C/c1ccc(-c2ccccc2C(=O)O)o1` shows fluorescence artifact activation equal to 0.09

For record `CC(=O)Nc1cccc(C(=O)/C=C/c2ccc(N(C)C)cc2)c1` the listed fluorescence artifact activation is 6.61

Notebook: `COc1cc(OC)c(OC)cc1/C=C1\Oc2cc(OCC(=O)N3Cc4ccccc4C[C@H]3C(=O)O)ccc2C1=O` , fluorescence artifact activation read as -0.01

Form field fluorescence artifact activation, entry `CCN(CC)c1ccc2cc(C(=O)NCc3ccc(F)cc3)c(=N)oc2c1` : 17.9

Reported fluorescence artifact activation ( `N#Cc1cccc(NC(=S)Nc2ccccc2)c1` ) = 0.03

fluorescence artifact activation measured on CS(=O)(=O)Nc1ccc(C2=NN(C(=O)CCCC(=O)O)C(c3cccs3)C2)cc1 (stereo not given) = 16.5

Short answer for `COC(=O)Cn1c(C)c(/C=C/c2cc[n+](C)cc2)c2ccccc21` : fluorescence artifact activation was 0.1

Lab note: `O=C(COC(=O)Cn1cnc2ccccc21)Nc1cccc2c1C(=O)c1ccccc1C2=O` gave fluorescence artifact activation of 5.29

The compound listed as `N#Cc1ccccc1NC(=O)CNc1ccc(Cl)c(C(F)(F)F)c1` shows fluorescence artifact activation equal to 1.46

Sure, the documented fluorescence artifact activation for `COc1ccc(CCNC(=O)c2ccccc2OCc2c(C)noc2C)cc1` is -0.02

Looking up `N=C1/C(=C\c2coc3ccc(O)cc3c2=O)C(=O)N=C2SC=CN12` , I found its fluorescence artifact activation recorded as -0.02

In plain terms, `COc1ccccc1N1CCN(C(=O)c2cn(-c3ccccc3)nc2-c2cccnc2)CC1` has a documented fluorescence artifact activation of 0.33

response.value for `CCN(CC)c1ccc(/C=N/OCC(=O)Nc2cccc(C)c2)cc1` (field: fluorescence artifact activation) = 0.61

Quick note, fluorescence artifact activation for `CC1(C)CC(=O)C=C(NCc2ccc(Cl)c(Cl)c2)C1` landed at -0.02

// fluorescence artifact activation lookup, compound = `CC(=O)c1cc(NC(=O)c2ccc(C)cc2)c(=O)oc1/C=C/N(C)C` , result: 15.6

Item: `Clc1cccc(C[n+]2cc(-c3ccccc3)n3c2CCC3)c1` | fluorescence artifact activation: -0.06

# compound `COc1ccc(/C=C2\SC(=O)N(CCC(=O)N3CCN(C)CC3)C2=O)cc1` ; its fluorescence artifact activation = -0.03

Value of fluorescence artifact activation reported for the compound `CN(CC(=O)NCc1ccc(Cl)cc1)S(=O)(=O)c1cccc2cccnc12` is 0.14

// sample CN1CC=C2C(C#N)=C(N)C(C#N)(C#N)C(Cc3ccccc3)C2C1 (stereo not given) , its fluorescence artifact activation was 0.22

CCN1CC=C2C(C#N)=C(N)C(C#N)(C#N)C(CCc3ccccc3)C2C1 (stereo not given) has a reported fluorescence artifact activation of 0.03

# compound `CC1=CC2=NC(=O)/C(=C\c3ccc(-c4cccc(Cl)c4)o3)C(=N)N2O1` ; its fluorescence artifact activation = 7.64

fluorescence artifact activation reported for this compound `COC(=O)c1cc(NC(=O)c2ccccc2)c(=O)oc1C/C=N\OCc1ccc(Cl)cc1Cl` : 0.01

So for `COc1cc([C@@H]2[C@H]3CN(C)CC=C3C(C#N)=C(N)C2(C#N)C#N)cc2c1OCO2` , the logged fluorescence artifact activation turned out to be 0.14

compound `CCc1ccc(C(=O)NNC(=O)c2cccc(N3C(=O)CCC3=O)c2)cc1` , fluorescence artifact activation observed: 2.93

# fluorescence artifact activation (compound: COC(=O)C1=NN(C(=O)c2ccc(Br)cc2)C(O)(C(C)(C)C)C1 (stereo not given) ) is 1.09

The reported value for CC(C(=O)N1CCc2ccccc2C1)N1C(=O)c2ccccc2C1=O (stereo not given) in terms of fluorescence artifact activation is 0.12
